# maps each entry to its lipase activity
- TARGET_OR_SYSTEM: Lipolase (Thermomyces lanuginosus)
- Construct: purchased Sigma-Aldrich
- Sequence (O59952 23-291): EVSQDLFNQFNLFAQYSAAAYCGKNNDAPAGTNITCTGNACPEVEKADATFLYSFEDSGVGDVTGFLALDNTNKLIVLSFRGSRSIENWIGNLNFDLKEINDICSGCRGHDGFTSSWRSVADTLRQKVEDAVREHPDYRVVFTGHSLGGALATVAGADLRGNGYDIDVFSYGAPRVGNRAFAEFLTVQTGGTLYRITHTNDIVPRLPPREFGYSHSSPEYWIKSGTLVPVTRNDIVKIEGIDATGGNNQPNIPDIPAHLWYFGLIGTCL
- EXPERIMENT_SUMMARY: storage stability of lipase (Lipolase activity, pNitrophenol-valerate substrate) in liquid formulations at 37° C.
- Format: biochemical, Thermomyces lanuginosa
- RUN_CONDITIONS: base formulation III.; component (a) 2.5 wt %; Lipolase 0.4 wt %; storage at 37° C.; 6 d

COMPOUND	SCALE_UNIT	lipase activity
CC(=O)OCC[N+](C)(C)C	%	95
O=C([O-])CC(O)(CC(=O)O)C(=O)O.[Na+] [C-(A.20), monosodium salt of citric acid]	%	70
O=C([O-])CC(O)(CC(=O)[O-])C(=O)O.[Na+].[Na+] [C-(A.21), disodium salt of citric acid]	%	68
O=C([O-])CC(O)(CC(=O)[O-])C(=O)[O-].[Na+].[Na+].[Na+] [C-(A.22), trisodium salt of citric acid]	%	66

Hello, the source for this data is patent US11512268B2, in case you need it.
